- System: CYP3A
- test: CYP3A enzyme activity
- Format: in vitro ADME
- experimental_setup: human, primary human hepatocytes, probe testosterone
outcome_measure: fold induction at 0.3 µM
Just the number, please.

Incoming: Please supply the value of reported fold induction at 0.3 µM for the item CCn1c(C(=O)c2cc(C)cc(C#N)c2)c(C(C)C)c(=O)[nH]c1=O [KM-023]
Outgoing: 1.9

----------
- test: Single-dose pharmacokinetics in healthy subjects
- Type: in vivo, human
- experimental_setup: human, plasma, oral, 150 mg
outcome_measure: AUC(0-inf) (ng·h/mL)
Respond with the bare value in ng·h/mL.

Incoming: Please supply the value of reported AUC(0-inf) for the item `CCn1c(C(=O)c2cc(C)cc(C#N)c2)c(C(C)C)c(=O)[nH]c1=O`
Outgoing: 14100

----------
- test: Single-dose pharmacokinetics in healthy subjects
- Format: in vivo, human
- experimental_setup: human, plasma, oral, 600 mg
outcome_measure: Cmax (ng/mL)
Respond with the bare value in ng/mL.

Incoming: Please supply the value of reported Cmax for the item `CCn1c(C(=O)c2cc(C)cc(C#N)c2)c(C(C)C)c(=O)[nH]c1=O`
Outgoing: 1250

----------
- test: Single-dose pharmacokinetics in healthy subjects
- Format: in vivo, human
- experimental_setup: human, plasma, oral, 150 mg
outcome_measure: Cmax (ng/mL)
Respond with the bare value in ng/mL.

Incoming: Please supply the value of reported Cmax for the item CCn1c(C(=O)c2cc(C)cc(C#N)c2)c(C(C)C)c(=O)[nH]c1=O [KM-023]
Outgoing: 621

----------
- Test system: CYP3A4 mRNA
- test: CYP3A4 mRNA content in primary human hepatocytes
- Type: in vitro ADME
- experimental_setup: human
outcome_measure: fold induction at 0.3 µM
Just the number, please.

Incoming: Please supply the value of reported fold induction at 0.3 µM for the item `CCn1c(C(=O)c2cc(C)cc(C#N)c2)c(C(C)C)c(=O)[nH]c1=O`
Outgoing: 2.3

----------
- test: Single-dose pharmacokinetics in healthy subjects
- Assay type: in vivo, human
- experimental_setup: human, plasma, oral, 600 mg
outcome_measure: Tmax (h)
Respond with the bare value in h.

Incoming: Please supply the value of reported Tmax for the item `CCn1c(C(=O)c2cc(C)cc(C#N)c2)c(C(C)C)c(=O)[nH]c1=O`
Outgoing: 3

----------
- Tested on: CYP3A
- test: CYP3A enzyme activity
- Format: in vitro ADME
- experimental_setup: human, primary human hepatocytes, probe testosterone
outcome_measure: fold induction at 30 µM
Just the number, please.

Incoming: Please supply the value of reported fold induction at 30 µM for the item `CCn1c(C(=O)c2cc(C)cc(C#N)c2)c(C(C)C)c(=O)[nH]c1=O`
Outgoing: 8.8

----------
- Tested on: CYP3A4 mRNA
- test: CYP3A4 mRNA content in primary human hepatocytes
- Type: in vitro ADME
- experimental_setup: human
outcome_measure: fold induction at 30 µM
Just the number, please.

Incoming: Write down the reported fold induction at 30 µM (system: CYP3A4 mRNA) of `CCn1c(C(=O)c2cc(C)cc(C#N)c2)c(C(C)C)c(=O)[nH]c1=O`
Outgoing: 6.2

----------
- test: Single-dose pharmacokinetics in healthy subjects
- Assay type: in vivo, human
- experimental_setup: human, plasma, oral, 600 mg
outcome_measure: AUC(0-t) (ng·h/mL)
Respond with the bare value in ng·h/mL.

Incoming: Please supply the value of reported AUC(0-t) for the item `CCn1c(C(=O)c2cc(C)cc(C#N)c2)c(C(C)C)c(=O)[nH]c1=O`
Outgoing: 26800
